assay-summary: Stability of the compound in urine of C57BL/6J mouse harboring mouse B16-Bl6 cells assessed as unchanged drug level at 18 MBq, iv after 1 hr
Type: ADME, organism-based
condition: read-out: Stability
attribute-measured: remaining at 1 h (%)
Numbers only, in %.

Note to self: remaining at 1 h recorded for CCN(CCNC(=O)c1cnc2cc(I)ccc2n1)CCOCCOCCOCC[18F] was 0.1

====

Kindly supply the reported Drug uptake values for the records listed here.
System: Bone
assay-summary: Biodistribution in bone of C57BL/6J mouse harboring mouse B16-Bl6 cells at 8 to 12 MBq, iv after 1 hr by PET analysis
Assay type: ADME, organism-based, Bone element
condition: in vivo
Numbers only, in % ID/g.

Example results:
compound-structure	endpoint-value
CCN(CCNC(=O)c1cnc2cc(I)ccc2n1)CCOCCOCCOCC[18F]	1.98
CCN(CCNC(=O)c1cnc2cc(I)ccc2n1)CCOCCOCCOCCOCCOCCOCCOCC[18F]	2.48
CCN(CC[18F])CCNC(=O)c1cnc2cc(I)ccc2n1	1.31
CCN(CC#CC[18F])CCNC(=O)c1cnc2cc(I)ccc2n1	2.77
CCN(CCC[18F])CCNC(=O)c1cnc2cc(I)ccc2n1	7.05

Note to self: Drug uptake recorded for CCN(C/C=C/C[18F])CCNC(=O)c1cnc2cc(I)ccc2n1 was 3.39

====

assay-summary: Stability of the compound in liver of C57BL/6J mouse harboring mouse B16-Bl6 cells assessed as unchanged drug level at 18 MBq, iv after 1 hr
Assay type: ADME, organism-based
condition: read-out: Stability
attribute-measured: remaining at 1 h (%)
Give bare numbers, in %.

Note to self: remaining at 1 h recorded for CCN(CCNC(=O)c1cnc2cc(I)ccc2n1)CCOCCOCCOCC[18F] was 8

====

assay-summary: Stability of the compound in eyes of C57BL/6J mouse harboring mouse B16-Bl6 cells assessed as unchanged drug level at 18 MBq, iv after 2 hrs
Format: ADME, organism-based, Eye
condition: read-out: Stability
attribute-measured: remaining at 2 h

Note to self: remaining at 2 h recorded for CCN(CCNC(=O)c1cnc2cc(I)ccc2n1)CCOCCOCCOCC[18F] was > 99%

====

Test system: Mus musculus
assay-summary: Biodistribution in eye of C57BL/6J mouse harboring mouse B16-Bl6 cells at 8 to 12 MBq, iv after 1 hr by PET analysis
Type: ADME, organism-based
condition: in vivo
attribute-measured: Drug uptake
Write down the value, and be sure its unit follows.

Example results:
compound-structure	measured-on	Drug uptake
CCN(C/C=C/C[18F])CCNC(=O)c1cnc2cc(I)ccc2n1	Mus musculus	9.49 % ID/g
CCN(CCNC(=O)c1cnc2cc(I)ccc2n1)CCOCCOCCOCCOCCOCCOCCOCC[18F]	Mus musculus	5.53 % ID/g
CCN(CCNC(=O)c1cnc2cc(I)ccc2n1)CCOCCOCCOCC[18F]	Mus musculus	10.5 % ID/g
CCN(CCC[18F])CCNC(=O)c1cnc2cc(I)ccc2n1	Mus musculus	10.46 % ID/g
CCN(CC[18F])CCNC(=O)c1cnc2cc(I)ccc2n1	Mus musculus	1.4 % ID/g

Sample CCN(CC#CC[18F])CCNC(=O)c1cnc2cc(I)ccc2n1 , system: Mus musculus. Its Drug uptake is 2.7 % ID/g

====

Test system: Mus musculus
assay-summary: Biodistribution in tumor of C57BL/6J mouse harboring mouse B16-Bl6 cells at 8 to 12 MBq, iv after 1 hr by PET analysis
Type: ADME, organism-based, Neoplasm
condition: in vivo
attribute-measured: Drug uptake (% ID/g)
One number for each entry, in % ID/g.

compound-structure	Drug uptake (% ID/g)
CCN(CCC[18F])CCNC(=O)c1cnc2cc(I)ccc2n1	10.56
CCN(CCNC(=O)c1cnc2cc(I)ccc2n1)CCOCCOCCOCC[18F]	14.33
CCN(CC[18F])CCNC(=O)c1cnc2cc(I)ccc2n1	2.02
CCN(CC#CC[18F])CCNC(=O)c1cnc2cc(I)ccc2n1	4.16

I would be grateful if you could provide Drug uptake for each of the following entries.
1. CCN(CCNC(=O)c1cnc2cc(I)ccc2n1)CCOCCOCCOCCOCCOCCOCCOCC[18F]
2. CCN(C/C=C/C[18F])CCNC(=O)c1cnc2cc(I)ccc2n1

## Output
[6.63, 6.74]
